protocol_description: Pharmacokinetics of MB-905 in plasma of mice
experimental_parameters: both, CD1, mouse, plasma, po, 550 mg/kg
measure: Cmax (ng/mL)
The response must be a number in ng/mL with no trailing unit.

Req: Need Cmax, item c1coc(CNc2ncnc3[nH]cnc23)c1 [MB-905, kinetin]
Resp: 1050

----------
protocol_description: Pharmacokinetics of MB-905 in three pre-formulations in mice
Assay type: in vivo
experimental_parameters: mouse, plasma, po, 550 mg/kg, 5% ethanol, 30% Propylene Glycol, 45% PEG 400, 20% water, 550 mg/kg (p.o.)
measure: half-life (h)
Give just the numeric value; h need not be written.

Req: Any idea what its half-life is? The compound is `c1coc(CNc2ncnc3[nH]cnc23)c1`
Resp: 8.63
